Target Under Test: human FAK (Homo sapiens (Human), UniProt Q05397)
Sequence (Q05397 whole entry): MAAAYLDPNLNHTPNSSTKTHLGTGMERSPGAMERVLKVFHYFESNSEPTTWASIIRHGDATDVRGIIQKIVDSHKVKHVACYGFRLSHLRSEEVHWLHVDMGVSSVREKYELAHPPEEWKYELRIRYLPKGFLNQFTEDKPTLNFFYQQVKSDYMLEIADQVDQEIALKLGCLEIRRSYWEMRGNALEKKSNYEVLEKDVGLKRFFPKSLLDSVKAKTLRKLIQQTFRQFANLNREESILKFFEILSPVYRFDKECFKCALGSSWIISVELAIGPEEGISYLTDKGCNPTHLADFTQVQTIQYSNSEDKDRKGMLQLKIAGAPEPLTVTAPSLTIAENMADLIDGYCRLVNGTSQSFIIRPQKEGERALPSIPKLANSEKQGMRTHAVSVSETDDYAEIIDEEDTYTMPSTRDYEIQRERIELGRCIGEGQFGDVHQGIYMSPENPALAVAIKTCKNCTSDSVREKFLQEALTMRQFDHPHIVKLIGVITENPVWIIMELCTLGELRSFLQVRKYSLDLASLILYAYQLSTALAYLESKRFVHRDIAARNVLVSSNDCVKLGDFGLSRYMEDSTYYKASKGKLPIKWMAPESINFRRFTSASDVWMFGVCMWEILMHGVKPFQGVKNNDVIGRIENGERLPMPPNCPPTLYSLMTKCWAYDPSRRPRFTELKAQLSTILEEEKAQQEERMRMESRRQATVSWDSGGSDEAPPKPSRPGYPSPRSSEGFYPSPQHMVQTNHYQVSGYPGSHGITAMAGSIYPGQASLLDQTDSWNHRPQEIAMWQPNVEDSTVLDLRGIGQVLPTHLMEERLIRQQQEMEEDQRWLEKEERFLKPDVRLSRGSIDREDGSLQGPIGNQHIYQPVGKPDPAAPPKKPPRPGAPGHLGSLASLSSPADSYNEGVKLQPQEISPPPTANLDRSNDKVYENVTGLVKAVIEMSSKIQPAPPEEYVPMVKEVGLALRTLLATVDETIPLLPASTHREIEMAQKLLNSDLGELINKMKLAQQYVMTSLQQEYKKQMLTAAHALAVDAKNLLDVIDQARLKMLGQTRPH
Experimental Context: read-out: FAK IC50
Each record is given y if its reported IC50 is strictly below 1000 nM. Records at or above 1000 nM are given n.

Problem: Determine if "COc1ccc(C(F)(F)F)cc1-c1cccn2nc(Nc3ccc4c(c3)CCN(C(=O)OC(C)(C)C)C4)nc12" shows IC50 strictly lower than 1000 nM.
Solution: n

Problem: Determine if "CN(c1ccc(-c2cccn3nc(Nc4ccc(CN5CCS(=O)(=O)CC5)cc4)nc23)cc1)S(C)(=O)=O" shows IC50 strictly lower than 1000 nM.
Solution: n

Problem: Determine if "CS(=O)(=O)c1ccc(-c2cccn3nc(Nc4cccc(C5CCN(CC(N)=O)CC5)c4)nc23)cc1" shows IC50 strictly lower than 1000 nM.
Solution: y

Problem: Determine if "COc1ccc(C(F)(F)F)cc1-c1cccc2nc(Nc3ccc4c(c3)CCNCC4)nn12" shows IC50 strictly lower than 1000 nM.
Solution: y

Problem: Determine if "CN1CCN(c2cccc(Nc3nc4c(NCc5ccccc5N(C)S(C)(=O)=O)cccn4n3)c2)CC1" shows IC50 strictly lower than 1000 nM.
Solution: y

Problem: Determine if "CCOc1ccc(C(F)(F)F)cc1-c1cccn2nc(Nc3ccc4c(c3)CCN(CC(=O)N(C)C)CC4)nc12" shows IC50 strictly lower than 1000 nM.
Solution: n

Problem: Determine if "CS(=O)(=O)c1ccc(-c2cccn3nc(Nc4ccc(N5CCOCC5)cc4)nc23)cc1" shows IC50 strictly lower than 1000 nM.
Solution: y

Problem: Determine if "CCN1CCN(c2cccc(Nc3nc4c(-c5ccc(P(C)(C)=O)cc5)cccn4n3)c2)C(=O)C1" shows IC50 strictly lower than 1000 nM.
Solution: n

Problem: Determine if "CN1CCC(c2cccc(Nc3nc4c(-c5cccc(N(C)S(C)(=O)=O)c5)cccn4n3)c2)CC1" shows IC50 strictly lower than 1000 nM.
Solution: y

Problem: Determine if "CN1CCN(c2ccc(Nc3nc4c(NCc5ccccc5N(C)S(C)(=O)=O)cccn4n3)cc2)CC1" shows IC50 strictly lower than 1000 nM.
Solution: y

Problem: Determine if "CN1CCN(c2ccc(NC(=O)Nc3nc4cccc(-c5cccc(S(C)(=O)=O)c5)n4n3)cc2)CC1" shows IC50 strictly lower than 1000 nM.
Solution: n

Problem: Determine if "CN1CCN(c2cncc(Nc3nc4c(NCc5ccccc5N(C)S(C)(=O)=O)cccn4n3)n2)CC1" shows IC50 strictly lower than 1000 nM.
Solution: n

Problem: Determine if "CS(=O)(=O)c1ccc(-c2cccn3nc(Nc4ccc(CN5CCOCC5)cc4)nc23)cc1" shows IC50 strictly lower than 1000 nM.
Solution: n

Problem: Determine if "COc1cccc(CNc2cccn3nc(Nc4ccc(OC)nc4)nc23)c1" shows IC50 strictly lower than 1000 nM.
Solution: n

Problem: Determine if "CN1CCN(c2cccc(Nc3nc4c(NCc5cccc(S(C)(=O)=O)c5)cccn4n3)c2)CC1" shows IC50 strictly lower than 1000 nM.
Solution: n

----------
Could you please report measured log10 IC50 for the items listed next?
Target Under Test: UniProt Q05397
Experimental Context: read-out: FAK IC50
Transform log10 | Measure IC50 | Unit nM

Problem: Would you mind telling me what log10 IC50 value was observed for CCn1cc(Nc2nc3c(-c4ccc(S(C)(=O)=O)cc4)cccn3n2)cn1 [Example 209] ?
Solution: 4.00

Problem: Would you mind telling me what log10 IC50 value was observed for CN1CCN(c2ccc(Nc3nc4c(Nc5ccccc5CS(C)(=O)=O)cccn4n3)cc2)CC1 [Example 164] ?
Solution: 3.11

Problem: Would you mind telling me what log10 IC50 value was observed for CS(=O)(=O)c1ccc(-c2cccc3nc(Nc4ccc(CN5CCS(=O)(=O)CC5)cc4)nn23)cc1 [Example 115] ?
Solution: 3.02

Problem: Would you mind telling me what log10 IC50 value was observed for CN1CCN(c2cccc(Nc3nc4c(NCc5ccccc5F)cccn4n3)c2)CC1 [Example 395] ?
Solution: 3.17

Problem: Would you mind telling me what log10 IC50 value was observed for COc1ccccc1CNc1cccn2nc(Nc3ccncc3)nc12 [Example 401] ?
Solution: 3.81

Problem: Would you mind telling me what log10 IC50 value was observed for CN1CCC(c2ccc(Nc3nc4c(NCc5ccccc5CN(C)S(C)(=O)=O)cccn4n3)cc2)CC1 [Example 159] ?
Solution: 2.73

Source listed as patent US8501936B2.
